Test system: NCI/ADR-RES ovarian
Assay: NCI tumour cell line growth inhibition, 48 h
# reported TGI; entries follow
Provide the reading as a plain figure in µM.

The cases that follow already have their TGI on record.
Find the measured TGI: item `COc1ccc(-c2nc(-c3nc4ccc(F)cc4[nH]3)c3ccccn23)cc1` , target or system NCI/ADR-RES ovarian.
36.5

Find the measured TGI: item `CC1=Nc2ccccc2/C1=C\c1c(C)[nH]c2ccccc12` , target or system NCI/ADR-RES ovarian.
38.3

Find the measured TGI: item C=C1CCC2(C#N)[C@H]3[C@H](CC[C@@H]2C)[C@@H](C)C[C@@H](CC(C)(C)NC(=O)CN2CCC2=O)[C@H]13 (stereo not given in full) , target or system NCI/ADR-RES ovarian.
38.4

Find the measured TGI: item `C#Cc1nc2ccccc2c(=O)[nH]1` , target or system NCI/ADR-RES ovarian.
8.19

Now look at this entry.
Find the measured TGI: item `CC1=Cc2ccc(C)cc2C(=O)C1=O` , target or system NCI/ADR-RES ovarian.
46.8

----------
Test system: NCI-H226 lung
Test: NCI tumour cell line growth inhibition, 48 h
Property: TGI

Which TGI is listed for `CN(C)Cc1cc(C(=O)/C=C/c2ccccc2)cc(CN(C)C)c1O` ?
78.5 µM

Which TGI is listed for `Nc1ccc(S(=O)(=O)Nc2nc3ccccc3nc2N2CCCCCC2)cc1` ?
> 100 µM

Which TGI is listed for CCc1cc2c(c3c1CCCC3=O)CC1(Cc3ccc(C(=O)OC)cc3C1)C2 (configuration not stated) ?
> 100 µM

Which TGI is listed for `O=C1/C(=C/c2ccccc2)CN(C(=O)CCN2CCCC2)C/C1=C\c1ccccc1` ?
13.9 µM

Which TGI is listed for `C/C(=N\NC(=S)N(C)C)c1cccnn1` ?
4.83 µM

Next:
Which TGI is listed for `Cc1cc(N(CCC#N)CCC#N)ccc1N=Nc1ccc(Br)cc1` ?
> 46.5 µM

Which TGI is listed for `S=c1nc(N/N=C/c2ccco2)c2cn[nH]c2[nH]1` ?
> 100 µM

----------
# reported TGI; entries follow
Tested on: NCI-H460 lung
Experiment: NCI tumour cell line growth inhibition, 48 h
Where a SMILES comes first, the peptide text is derived from it. [ ]: non-standard residue; d: D form. The star is where a group is joined. Bn2Val = CC(C)[C@@H](C(=O)*)N(Cc1ccccc1)Cc1ccccc1; NH(4-Cl-benzyl) = Clc1ccc(CN*)cc1; NMeV = CN[C@H](C(=O)O)C(C)C; dNMeA = CN[C@H](C)C(=O)O

The cases that follow already have their TGI on record.
Which TGI is listed for `COc1ccc(CCc2cc(OC)cc(OC)c2)cc1` ?
> 100 µM

Which TGI is listed for C=C(C)CC1(O[Si](C)(C)C)C(=O)C(OCC)=C1OCC (stereo not given) ?
> 100 µM

Which TGI is listed for `C/C(=N\Nc1nc2cc(C(F)(F)F)ccc2s1)c1ccccn1` ?
22.3 µM

Next:
Which TGI is listed for `c1ccc2c(-c3nc(-c4c[nH]c5ccncc45)cs3)c[nH]c2c1` ?
3.58 µM

Which TGI is listed for O=C1CC(c2[nH]nc3ccccc23)C(=O)N1c1ccccc1 (stereo not given) ?
> 100 µM

Which TGI is listed for CC(C)[C@H](NC(=O)[C@H](C(C)C)N(Cc1ccccc1)Cc1ccccc1)C(=O)N(C)[C@H](C(=O)N1CCC[C@H]1C(=O)N(C)[C@H](C)C(=O)NCc1ccc(Cl)cc1)C(C)C (Bn2Val-V[NMeV]P[dNMeA]-{NH(4-Cl-benzyl)}) ?
> 100 µM

Which TGI is listed for `Cc1nc(N)c(N2CCN(CN)CC2)c(=O)[nH]1` ?
> 100 µM

Which TGI is listed for `CC1(C)CC2(CC(C)(C)N1O)NC(=O)OC2=O` ?
> 31.6 µM

Which TGI is listed for `Cc1nc(Nc2cccnc2)sc1C(=O)/C=C/c1ccc(Cl)cc1` ?
13.8 µM

Which TGI is listed for O=C1NC(=O)C(C(CC(=O)c2ccc(Cl)cc2)c2ccc(Cl)cc2)C(=O)N1 (stereo not given) ?
> 100 µM

----------
Tested on: CCRF-CEM leukemia
Assay: NCI tumour cell line growth inhibition, 48 h; in the data active = GI50 below about 0.43 µM; inactive = the rest
Field 'call' accepts active, inactive

# outcome recorded in this test, key = COc1ccc(C(O)c2cc3c(N)c(C(=O)Nc4cccc(Cl)c4)sc3nc2C)cc1 (configuration not stated)
inactive

# outcome recorded in this test, key = `Cc1nc2c(n1C)C(=O)c1ccccc1C2=O`
inactive

# outcome recorded in this test, key = `O=C(NCCc1ccccn1)OCc1nc2nc(Cl)nc(N3CCOCC3)c2[nH]1`
inactive

--- query ---
# outcome recorded in this test, key = CC(C)=CCC(OC(=O)C=C(C)C)C1=CC(=O)c2c(O)ccc(O)c2C1=O (configuration not stated)
active

----------
Tested on: MCF7 breast
Test: NCI tumour cell line growth inhibition, 48 h
Property: TGI (µM)
Provide the reading as a plain figure in µM.

The cases that follow already have their TGI on record.
Which TGI is listed for `O=C([O][Sn]([O]C(=O)c1ccccn1)([c]1ccccc1)[c]1ccccc1)c1ccccn1` ?
13.4

Which TGI is listed for COc1cc2c(cc1OCCCCCCN1CCN(CC(=O)Nc3ccc(Cl)cc3C(=O)c3ccccc3Cl)CC1)N=CC1CCCN1C2=O (centres undefined) ?
0.321

Which TGI is listed for COc1ccc(C(SC2C(O)C(CO)OC2n2ccc(=O)[nH]c2=O)(c2ccccc2)c2ccc(OC)cc2)cc1 (centres undefined) ?
43.7

Now look at this entry.
Which TGI is listed for `O=C(Oc1ccc(CO[N+](=O)[O-])cc1)c1ccccc1` ?
0.722

----------
# reported TGI; entries follow
Test system: MDA-MB-435
Assay: NCI tumour cell line growth inhibition, 48 h

Which TGI is listed for `O=c1cc(N/N=C/c2ccc(F)cc2)c2cc(Cl)ccc2[nH]1` ?
> 100 µM

Next:
Which TGI is listed for `CCCSc1ccc2[nH]c(N3C(=O)/C(=C/c4ccccc4)N=C3c3ccccc3)cc2c1` ?
21.3 µM

Which TGI is listed for `O=[N+]([O-])c1cccc(N=Nc2c(O)c(S(=O)(=O)O)cc3cc(S(=O)(=O)O)ccc23)c1` ?
> 100 µM

Which TGI is listed for `O=C(N/N=C/C=C/c1ccccc1)c1ccccc1Nc1ccccc1C(=O)N/N=C/C=C/c1ccccc1` ?
> 100 µM

Which TGI is listed for `COc1ccc(-c2oc3cc(O)cc(O)c3c(=O)c2OC)cc1` ?
> 100 µM

Which TGI is listed for COC(=O)C1=C(C(=O)OC)C2(C)C=CC1O2 (stereo unspecified) ?
33.2 µM

Which TGI is listed for O=C(CCN1CCN2c3ccccc3CCC2C1)c1ccc(F)cc1 (stereo unspecified) ?
47.4 µM

Which TGI is listed for `Cc1nc2ccc(NC(=O)CCNC(=O)CCCc3ccc(CC(C(=O)O)C(=O)O)cc3)cc2s1` ?
> 100 µM

Which TGI is listed for CC(Oc1ccccc1Cl)C(=O)NN1C(=O)CSC1c1ccccc1 (stereo unspecified) ?
> 100 µM

Which TGI is listed for CN(Cc1cnc2nc(N)nc(N)c2n1)c1ccc(C(=O)NC(CO)CCCO)cc1 (stereo unspecified) ?
> 100 µM

Which TGI is listed for `Cc1cc2c([nH]c3ccccc32)c(O)c1-c1c(C)cc2c([nH]c3ccccc32)c1O` ?
28.2 µM

Which TGI is listed for `O=C1OC[C@H]2[C@@H]1[C@H]1O[C@@H]2C2=C(CCC2)C1=O` ?
> 100 µM

Which TGI is listed for CC(C)C(C/C=C1\CC(CO)(COC(=O)C2CCCCC2)OC1=O)C(C)C (stereo unspecified) ?
> 100 µM

Which TGI is listed for `CCCCCC[C@H](C)Nc1nc2ccccc2c2occc12` ?
35.2 µM

Which TGI is listed for COc1cc2c(cc1O)CC1c3c(cc(O)c(OC)c3-2)CCN1C (stereo unspecified) ?
> 100 µM

Which TGI is listed for `Cn1c(-c2ccc(/C=N/NC(=S)N/N=C/c3ccc(-c4c[n+]5ccsc5n4C)cc3)cc2)c[n+]2ccsc12` ?
> 100 µM

Which TGI is listed for `C#Cc1nc2ccccc2c(=O)[nH]1` ?
2.13 µM

----------
Tested on: KM12 colon
Test: NCI tumour cell line growth inhibition, 48 h
Property: TGI

Which TGI is listed for `O=[N+]([O-])c1cccc(N=Nc2c(O)c(S(=O)(=O)O)cc3cc(S(=O)(=O)O)ccc23)c1` ?
> 100 µM

----------
Test system: M14 melanoma
Assay: NCI tumour cell line growth inhibition, 48 h
Property: TGI (µM)
Provide the reading as a plain figure in µM.

Which TGI is listed for `O=C([O][Sn]([O]C(=O)c1ccccn1)([c]1ccccc1)[c]1ccccc1)c1ccccn1` ?
15.8

Now look at this entry.
Which TGI is listed for CN1CC2=C(NC(=S)NC2c2ccccc2)/C(=C/c2ccccc2)C1 (stereo not given) ?
56.6
